tgt: T1, human DR5 (monomeric Fc fusion) (human, UniProt O14763 56-207, biotinylated at the Avi tag in the ELISA (the tag is not in the letters))
T1 construct: biotinylated in the ELISA; also called ECD-AcTev-hu Fc knob-Avi; not shown: AcTev site, hu Fc knob and Avi part of the fusion chain, and the separate Fc-hole chain
test protocol: biochemical ELISA, biotinylated antigen on streptavidin plate
Exercise: state measured EC50 for each of the binders provided.
# value in ng/mL; strip the unit string

Prompt: Data request, read-out EC50, for DR5TAA-0006 (antibody, V domains shown, rabbit IgG; also called 058; clone 058) VH: QSLEESGGRLVTPGTPLTLTCTASGFSLSSNHMSWVRQAPGKGLEWIGYIYAGSGSAYYASWAKGRFTISRTSTTVDLKMTSLTTEDTATYFCAGDAGSSYWEFNLWGPGTLVTVSS VL: LVMTQTPSSTSEPVGGTVTIKCQASQSIGSSLSWYQQKPGQPPKLLIYHASTLASGVPSRFSGSRSGIQTTLTISGVQCDDAATYYCLGVADARRDDGFAFGGGTEVVVKG
Completion: 2

Prompt: # query: EC50 of entry DR5TAA-0016 (antibody, V domains shown) VH: QSLEESGGRLVKPDETLTLTCTVSGFSLNNYAMSWVRQAPGKGLEWIGMINKYGTKYYATWTKGRATISKTSTTLDLEITSPTTEDTATYFCARVRYAGDDYAEWLDVWGQGILVTVSS VL: DIVMTQTASPVSAAVGGTVTINCQASQSISSSYVSWYQQKPGQPPKLLIYKASTLASGVPSRFSGSGSGTQLSLTIRGVQCDDAATYYCLYGYSDVSSSEYVFGGGTEVVVRG
Completion: 4

Prompt: What does the record list as EC50 for DR5TAA-0019 (antibody, V domains shown, rabbit IgG) VH: QSVEESGGRLVTPGTPLTLTCTVSGFSLSNYAMSWVRQAPGKGLEWIGIISSSGTTYYASWAKGRFTISKTSTTVDLKVTSPTTEDTATYFCARETYYGYSYAAGLWGPGTLVTVSS VL: ALVMTQTPSSVSAAVGGTVTINCQASQNIYSNLAWFQQKPGQPPKLLIYETSKLASGVPSRFSGSGSGTEFTLTISDLECDDAATYYCQSSWHSISTDCAFGGGTEVVVKG ?
Completion: 3.5

Prompt: Tell me the measured EC50 of DR5TAA-0013 (antibody, V domains shown, rabbit IgG; also called 298; clone 298) VH: QSLEESGGRLVTPGTPLTLTCTASGFTISSYHMSWVRQAPGKGLEWIGYIYAGSASTWYASWVKGRFTISKTSTTVDLKMTSLTTEDTATYFCARDAGSSYWEFNLWGPGTLVTVSS VL: LVMTQTPSSTSEPVGGTVTIKCQASQSIGSSLSWYQQTPGQPPKLLIYTASSLASSVPKRFSGSRSGTQFTLTISGVQCADAATYYCLGIDDVRRDDGFAFGGGTEVVVKG , please.
Completion: 2.1

Prompt: Given the entry DR5TAA-0005 (antibody, V domains shown, rabbit IgG; also called 039; clone 039) VH: QSLEESGGRLVTPGTPLTLTCTASGFSLSSAYMSWVRQAPGKGLEWIGYIYSGSGSTWYASWVKGRFTISKTSTTVDLKITSPTTEDTATYFCARGYSTMGDLWGPGTLVTVSS VL: QVLTQTPSPVSAAVGGTVTINCQASQSVYNNRLAWYQQKPGQPPKLLIYLASTLASGVPSRFKGSGSGTQFTLTISDLQCDDAATYYCAGGYSGNINAFGGGTEVVVKG , report its measured EC50.
Completion: 2.5

Prompt: What measured EC50 goes with DR5TAA-0011 (antibody, V domains shown, also called 174; clone 174) VH: QSVEESGGRLVTPGTPLTLTCTVSGFSISRYAMIWVRQAPGEGLEYIGFITSDSSAYYASWAKGRFTISKTSTTVDLKMTSPTTEDTATYFCARYTYSDGTDLWGPGTLVTVSS VL: DIVMTQTPASVSEPVGGTVTIKCQASQSISTYLSWYQQKPGQPPKRLIYKASTLASGVPSRFKGSGSGTDFTLTIRDLECADAATYYCQPNSGIATYGAAFGGGTEVVVKG ?
Completion: 2

Prompt: If you can, please state the reported EC50 value of DR5TAA-0010 (antibody, V domains shown, rabbit IgG; also called 481; clone 481) VH: QSLEESGGRLVKPDETLTLTCTVSGFSLSSNAISWVRQAPGMGLEWIGIIGSSGYTYYASWAKGRFTVSKTSTTVDLEIASPTTEDTATYFCARGYSGASDYSFNLWGPGTLVTVSS VL: AYDMTQTPDSVEVAVGGTVTIKCQASQTIGDALAWYQQKPGQRPNLLIYRTSTLASGVPSRFSGSGSGTHFTLTISGVECADAATYYCQQGATYNNVLNTFGGGTEVVVKG .
Completion: 2.8
